The following compounds are shown together with reported pIC50 values.
# Test target: HCV polymerase (Hepatitis C virus genotype 1b)
# Construct: (His)6 (C)
# Assay comment: biochemical
# Recorded conditions: polymerase assay of Biological Example 1; read-out: NS5B polymerase IC50
pIC50: −log10 of the molar value.
Observed property: pIC50

| Compound | Observed property | Recorded value |
| --- | --- | --- |
| CNC(=O)c1c(-c2ccc(C3CC3)cc2)oc2nc(N(CCCCS(C)(=O)=O)S(C)(=O)=O)c(C3CC3)cc12 | pIC50 | 8.52 |
| CNC(=O)c1c(-c2ccc(Cl)cc2)oc2nc(N(CCCCS(C)(=O)=O)S(C)(=O)=O)c(I)cc12 | pIC50 | 7.85 |
| CNC(=O)c1c(-c2ccc(C)cc2)oc2nc(N(CCOCCC(CCOC)C(=O)O)S(C)(=O)=O)c(C3CC3)cc12 (stereo not shown) | pIC50 | 7.70 |
| CNC(=O)c1c(-c2ccc(C)cc2)oc2nc(N(CC3CCC(=O)O3)S(C)(=O)=O)c(C3CC3)cc12 (stereo not shown) | pIC50 | 8.22 |
| CNC(=O)c1c(-c2ccc(C)cc2)oc2nc(N(CCCCCBr)S(C)(=O)=O)c(C3CC3)cc12 | pIC50 | 8.52 |
| CNC(=O)c1c(-c2ccc(C)cc2)oc2nc(N(CCCC(CC#N)C(=O)OC)S(C)(=O)=O)c(C3CC3)cc12 (stereo not shown) | pIC50 | 8.30 |
| CNC(=O)c1c(-c2ccc(Oc3ccc(F)cc3)cc2)oc2nc(N(CCCCC(=O)O)S(C)(=O)=O)c(C3CC3)cc12 | pIC50 | 9.00 |

Data credit: patent US20120015907A1
